This listing pairs binders with measured kon.
- subject_of_test: T1, human PD-L1 ECD-His (human, UniProt Q9NZQ7 19-238)
- T1 construct: extracellular domain; Analyte in all SPR and BLI runs; also called hPD-L1_ECD-His; hPD-L1 ECD-His; not shown: His tag
- protocol_text: SPR, hPD-L1-His, comparison of IgG isotypes of PL2#3
// note: answer is a bare numeric in M⁻¹ s⁻¹

Consider the binder PL2#3 IgG2 (antibody, V domains shown, Human IgG2 backbone) VH: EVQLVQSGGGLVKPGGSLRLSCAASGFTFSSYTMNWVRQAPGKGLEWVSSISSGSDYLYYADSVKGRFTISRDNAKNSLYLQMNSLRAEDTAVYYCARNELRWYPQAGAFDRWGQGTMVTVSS VL: QSVVTQPPSMSAAPGQRVTISCSGSSSYIESSYVGWYQQLPGTAPRLLIYDDDMRPSGIPDRFSGSKSGTSATLAITGLQTGDEADYYCEIWRSGLGGVFGGGTKLTVL . State its measured kon. 1.34e+06

Next:
Consider the binder PL2#3 IgG1 (antibody, V domains shown, Human IgG1) VH: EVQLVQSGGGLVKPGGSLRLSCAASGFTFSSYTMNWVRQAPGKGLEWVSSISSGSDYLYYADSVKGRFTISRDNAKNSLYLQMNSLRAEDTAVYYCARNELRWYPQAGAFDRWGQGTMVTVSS VL: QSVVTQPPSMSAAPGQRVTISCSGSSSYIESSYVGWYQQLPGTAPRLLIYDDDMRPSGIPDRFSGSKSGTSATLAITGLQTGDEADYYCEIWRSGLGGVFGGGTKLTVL . State its measured kon. 1.14e+06

Consider the binder PL2#3 mtIgG1 (N297A) (antibody, V domains shown, N297A mutant of human IgG1 Fc backbone) VH: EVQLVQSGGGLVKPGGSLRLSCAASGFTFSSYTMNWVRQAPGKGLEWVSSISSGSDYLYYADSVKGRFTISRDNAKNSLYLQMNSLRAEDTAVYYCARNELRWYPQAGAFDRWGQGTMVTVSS VL: QSVVTQPPSMSAAPGQRVTISCSGSSSYIESSYVGWYQQLPGTAPRLLIYDDDMRPSGIPDRFSGSKSGTSATLAITGLQTGDEADYYCEIWRSGLGGVFGGGTKLTVLS . State its measured kon. 1.33e+06

Consider the binder PL2#3 IgG4 (antibody, V domains shown, Human IgG4) VH: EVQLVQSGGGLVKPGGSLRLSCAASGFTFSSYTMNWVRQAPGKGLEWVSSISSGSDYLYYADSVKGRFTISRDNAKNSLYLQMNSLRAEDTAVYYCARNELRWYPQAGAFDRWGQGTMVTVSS VL: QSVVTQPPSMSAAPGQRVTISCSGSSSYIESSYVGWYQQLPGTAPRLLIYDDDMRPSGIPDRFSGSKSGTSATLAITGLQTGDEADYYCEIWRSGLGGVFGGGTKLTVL . State its measured kon. 1.26e+06

Consider the binder PL2 IgG1 (antibody, V domains shown) VH: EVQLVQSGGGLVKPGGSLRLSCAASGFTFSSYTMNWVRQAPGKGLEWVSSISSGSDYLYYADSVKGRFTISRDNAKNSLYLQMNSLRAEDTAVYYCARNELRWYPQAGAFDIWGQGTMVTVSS VL: QSVVTQPPSMSAAPGQNVTISCSGSSSYIESSYVSWYQQLPGTAPRLLIYDDDMRPSGIPDRFSGSKSGTSATLAITGLQTGDEADYYCEIWDSGLGGVFGGGTKLTVL . State its measured kon. 1.25e+06
